testDetails: amyloid nucleation score (Sup35N fusion, yeast selection) (log enrichment); library NNK2; higher = more nucleation; inactive = no reads after selection;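 further: zero at mode of non-aggregating sequences after 7 days selection at 30°C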
Assign classes using reported amyloid nucleation score values and the ranges bucket 1 (below 0.02), bucket 2 (0.02 to below 0.8), bucket 3 (0.8 or more), please.

Use the examples below as a reference point.
| substance | labelValue |
| --- | --- |
| HGHASFIRF | bucket 3 |
| LCWLATRVLSSNDSLYENME | bucket 3 |
| FGIFVNRLCFSIDSYAGNGK | bucket 3 |
| VNWRLKHWLGEDDPLPVTSF | bucket 1 |
| RLYVKWSNSISDSRSLCVP | bucket 2 |

QUERY: Assign a bin to AWGHIHAVPMYNALLYNSHD
RESULT: bucket 2

QUERY: Assign a bin to WLKYMSCSLAKSQVSACVSV
RESULT: bucket 2

QUERY: Assign a bin to IIHAFHMSGPLLRAQVS
RESULT: bucket 1

QUERY: Assign a bin to IANRGNAKHVRWICMMHHRS
RESULT: bucket 2

----------
testDetails: amyloid nucleation score (Sup35N fusion, yeast selection) (log enrichment); library NNK3; higher = more nucleation; inactive = no reads after selection
quantity: amyloid nucleation score

Below, each entry is followed by its recorded amyloid nucleation score result.
| substance | amyloid nucleation score |
| --- | --- |
| NAQGVSKWEDTRSNLNRLVV | inactive |
| MMSFNVPLNAWVLSEFDTTY | inactive |
| SRVNFM | inactive |
| NYSMNARGPVKDLAVFGSRG | inactive |
| LNCQYTFHAKCSFLHPSLL | 0.928 |
| VHTMEEVA | inactive |

QUERY: Quick one: amyloid nucleation score of REWRSNDGFFGSDSGVVGHT ?
RESULT: inactive

QUERY: Quick one: amyloid nucleation score of MNGIGNYLDTYMGSCHVEDM ?
RESULT: inactive

QUERY: Quick one: amyloid nucleation score of FIVNSLPDLNALAHMSALLY ?
RESULT: inactive

QUERY: Quick one: amyloid nucleation score of QLFMPGSVVTHRSYFTCMWL ?
RESULT: 1.95

QUERY: Quick one: amyloid nucleation score of KLFRIKNGSVEVIWYRNMCQ ?
RESULT: 0.973

QUERY: Quick one: amyloid nucleation score of SDKFMLRHHLCWDARSCFQV ?
RESULT: 0.348

QUERY: Quick one: amyloid nucleation score of SVIVKAKASTVGDMQAKCRI ?
RESULT: 1.1

----------
testDetails: amyloid nucleation score (Sup35N fusion, yeast selection) (log enrichment); library NNK3; higher = more nucleation; inactive = no reads after selection
quantity: amyloid nucleation score

Below, each entry is followed by its recorded amyloid nucleation score result.
| substance | result |
| --- | --- |
| KAPVVWYDMEARQKCVRGGG | inactive |
| EGGMTTFYFC | 2.13 |
| YAHLAL | inactive |
| FDMFVLGMGCGILQYLICFK | inactive |
| GSWMCVMLRVFCSCSWLYCS | -0.018 |
| LMVSREFWCSLSKV | inactive |

QUERY: Quick one: amyloid nucleation score of VCSFDMRDLQKTE ?
RESULT: inactive

QUERY: Quick one: amyloid nucleation score of FSSNTT ?
RESULT: inactive

QUERY: Quick one: amyloid nucleation score of EMLSIENGRFTKCKLGECVR ?
RESULT: -0.137

QUERY: Quick one: amyloid nucleation score of HMLLVD ?
RESULT: inactive

QUERY: Quick one: amyloid nucleation score of LWVRKDERGEYI ?
RESULT: inactive

QUERY: Quick one: amyloid nucleation score of CMNIRPMATLTESSS ?
RESULT: inactive

QUERY: Quick one: amyloid nucleation score of ECSRNAVCF ?
RESULT: inactive

QUERY: Quick one: amyloid nucleation score of LHGWFLNLLIFYAMRLRSVL ?
RESULT: inactive
